Tested on: HeLa Kyoto
Measurement notes: melting temperature (median over replicates), in situ; higher = more thermally stable
Assay setup: cell cycle stage: G1/S
Consider the following sequences; for each one, report its melting temperature.
Give bare numbers, in °C.

Some sequences with known melting temperature results, for comparison:
[
  {
    "Sequence code": "MSGSLGRAAAALLRWGRGAGGGGLWGPGVRAAGSGAGGGGSAEQLDALVKKDKVVVFLKGTPEQPQCGFSNAVVQILRLHGVRDYAAYNVLDDPELRQGIKDYSNWPTIPQVYLNGEFVGGCDILLQMHQNGDLVEELKKLGIHSALLDEKKDQDSK [GLRX5]",
    "Measure unit": "°C",
    "melting temperature": 53.9
  },
  {
    "Sequence code": "MDLSELERDNTGRCRLSSPVPAVCRKEPCVLGVDEAGRGPVLGPMVYAICYCPLPRLADLEALKVADSKTLLESERERLFAKMEDTDFVGWALDVLSPNLISTSMLGRVKYNLNSLSHDTATGLIQYALDQGVNVTQVFVDTVGMPETYQARLQQSFPGIEVTVKAKADALYPVVSAASICAKVARDQAVKKWQFVEKLQDLDTDYGSGYPNDPKTKAWLKEHVEPVFGFPQFVRFSWRTAQTILEKEAEDVIWEDSASENQEGLRKITSYFLNEGSQARPRSSHRYFLERGLESATSL [RNASEH2A]",
    "Measure unit": "°C",
    "melting temperature": 49.9
  },
  {
    "Sequence code": "MSSGAASGTGRGRPRGGGPGPGDPPPSETHKLVVVGGGGVGKSALTIQFIQSYFVSDYDPTIEDSYTKICSVDGIPARLDILDTAGQEEFGAMREQYMRAGHGFLLVFAINDRQSFNEVGKLFTQILRVKDRDDFPVVLVGNKADLESQRQVPRSEASAFGASHHVAYFEASAKLRLNVDEAFEQLVRAVRKYQEQELPPSPPSAPRKKGGGCPCVLL [RRAS]",
    "Measure unit": "°C",
    "melting temperature": 56.1
  }
]

For every item in the list below, what is its measured melting temperature?
1. MGCTVSAEDKAAAERSKMIDKNLREDGEKAAREVKLLLLGAGESGKSTIVKQMKIIHEDGYSEEECRQYRAVVYSNTIQSIMAIVKAMGNLQIDFADPSRADDARQLFALSCTAEEQGVLPDDLSGVIRRLWADHGVQACFGRSREYQLNDSAAYYLNDLERIAQSDYIPTQQDVLRTRVKTTGIVETHFTFKDLHFKMFDVGGQRSERKKWIHCFEGVTAIIFCVALSAYDLVLAEDEEMNRMHESMKLFDSICNNKWFTDTSIILFLNKKDLFEEKITHSPLTICFPEYTGANKYDEAASYIQSKFEDLNKRKDTKEIYTHFTCATDTKNVQFVFDAVTDVIIKNNLKDCGLF [GNAI2]
2. MADGELNVDSLITRLLEVRGCRPGKIVQMTEAEVRGLCIKSREIFLSQPILLELEAPLKICGDIHGQYTDLLRLFEYGGFPPEANYLFLGDYVDRGKQSLETICLLLAYKIKYPENFFLLRGNHECASINRIYGFYDECKRRFNIKLWKTFTDCFNCLPIAAIVDEKIFCCHGGLSPDLQSMEQIRRIMRPTDVPDTGLLCDLLWSDPDKDVQGWGENDRGVSFTFGADVVSKFLNRHDLDLICRAHQVVEDGYEFFAKRQLVTLFSAPNYCGEFDNAGGMMSVDETLMCSFQILKPSEKKAKYQYGGLNSGRPVTPPRTANPPKKR [PPP1CB]
3. MAQFVRNLVEKTPALVNAAVTYSKPRLATFWYYAKVELVPPTPAEIPRAIQSLKKIVNSAQTGSFKQLTVKEAVLNGLVATEVLMWFYVGEIIGKRGIIGYDV [ATP5L]
4. MAAFAVEPQGPALGSEPMMLGSPTSPKPGVNAQFLPGFLMGDLPAPVTPQPRSISGPSVGVMEMRSPLLAGGSPPQPVVPAHKDKSGAPPVRSIYDDISSPGLGSTPLTSRRQPNISVMQSPLVGVTSTPGTGQSMFSPASIGQPRKTTLSPAQLDPFYTQGDSLTSEDHLDDSWVTVFGFPQASASYILLQFAQYGNILKHVMSNTGNWMHIRYQSKLQARKALSKDGRIFGESIMIGVKPCIDKSVMESSDRCALSSPSLAFTPPIKTLGTPTQPGSTPRISTMRPLATAYKASTSDYQVISDRQTPKKDESLVSKAMEYMFGW [NUP35]

RESULT:
[53.5, 52.3, 55, 52.3]

Each sequence below has a recorded value; state its melting temperature.
1. MAIRKKSTKSPPVLSHEFVLQNHADIVSCVAMVFLLGLMFEITAKASIIFVTLQYNVTLPATEEQATESVSLYYYGIKDLATVFFYMLVAIIIHAVIQEYMLDKINRRMHFSKTKHSKFNESGQLSAFYLFACVWGTFILISENYISDPTILWRAYPHNLMTFQMKFFYISQLAYWLHAFPELYFQKTKKEDIPRQLVYIGLYLFHIAGAYLLNLNHLGLVLLVLHYFVEFLFHISRLFYFSNEKYQKGFSLWAVLFVLGRLLTLILSVLTVGFGLARAENQKLDFSTGNFNVLAVRIAVLASICVTQAFMMWKFINFQLRRWREHSAFQAPAVKKKPTVTKGRSSKKGTENGVNGTLTSNVADSPRNKKEKSS [TRAM1]
2. MVVLSVPAEVTVILLDIEGTTTPIAFVKDILFPYIEENVKEYLQTHWEEEECQQDVSLLRKQAEEDAHLDGAVPIPAASGNGVDDLQQMIQAVVDNVCWQMSLDRKTTALKQLQGHMWRAAFTAGRMKAEFFADVVPAVRKWREAGMKVYIYSSGSVEAQKLLFGHSTEGDILELVDGHFDTKIGHKVESESYRKIADSIGCSTNNILFLTDVTREASAAEEADVHVAVVVRPGNAGLTDDEKTYYSLITSFSELYLPSST [ENOPH1]
3. MLLLTRSPTAWHRLSQLKPRVLPGTLGGQALHLRSWLLSRQGPAETGGQGQPQGPGLRTRLLITGLFGAGLGGAWLALRAEKERLQQQKRTEALRQAAVGQGDFHLLDHRGRARCKADFRGQWVLMYFGFTHCPDICPDELEKLVQVVRQLEAEPGLPPVQPVFITVDPERDDVEAMARYVQDFHPRLLGLTGSTKQVAQASHSYRVYYNAGPKDEDQDYIVDHSIAIYLLNPDGLFTDYYGRSRSAEQISDSVRRHMAAFRSVLS [SCO2]

RESULT:
1. 52.2
2. 50.6
3. 50.5

QUERY: Quick one: melting temperature for MAGKQAVSASGKWLDGIRKWYYNAAGFNKLGLMRDDTIYEDEDVKEAIRRLPENLYNDRMFRIKRALDLNLKHQILPKEQWTKYEEENFYLEPYLKEVIRERKEREEWAKK [UQCRB] ?
RESULT: 53.9

====

Test system: HeLa Kyoto;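 further: HeLa Kyoto cells synchronized by double thymidine or nocodazole block, proteins quantified by TMT10plex mass spectrometry, three independent biological replicates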
Measurement notes: melting temperature (median over replicates), in situ; higher = more thermally stable
Assay setup: cell cycle stage: mitosis
Measurement name: melting temperature (°C)
Answers are plain numbers, in °C.

[
  {
    "Sequence code": "MAAPWASLRLVAPMWNGRIRGIHRLGAAVAPEGNQKKKRTILQFLTNYFYDVEALRDYLLQREMYKVHEKNRSYTWLEKQHGPYGAGAFFILKQGGAVKFRDKEWIRPDKYGHFSQEFWNFCEVPVEAVDAGDCDINYEGLDNLLRLKELQSLSLQRCCHVDDWCLSRLYPLADSLQELSLAGCPRISERGLACLHHLQNLRRLDISDLPAVSNPGLTQILVEEMLPNCEVVGVDWAEGLKSGPEEQPRDTASPVPA [ATP5SL]",
    "melting temperature [°C]": 52
  },
  {
    "Sequence code": "MLLLTRSPTAWHRLSQLKPRVLPGTLGGQALHLRSWLLSRQGPAETGGQGQPQGPGLRTRLLITGLFGAGLGGAWLALRAEKERLQQQKRTEALRQAAVGQGDFHLLDHRGRARCKADFRGQWVLMYFGFTHCPDICPDELEKLVQVVRQLEAEPGLPPVQPVFITVDPERDDVEAMARYVQDFHPRLLGLTGSTKQVAQASHSYRVYYNAGPKDEDQDYIVDHSIAIYLLNPDGLFTDYYGRSRSAEQISDSVRRHMAAFRSVLS [SCO2]",
    "melting temperature [°C]": 51.5
  },
  {
    "Sequence code": "MASERLPNRPACLLVASGAAEGVSAQSFLHCFTMASTAFNLQVATPGGKAMEFVDVTESNARWVQDFRLKAYASPAKLESIDGARYHALLIPSCPGALTDLASSGSLARILQHFHSESKPICAVGHGVAALCCATNEDRSWVFDSYSLTGPSVCELVRAPGFARLPLVVEDFVKDSGACFSASEPDAVHVVLDRHLVTGQNASSTVPAVQNLLFLCGSRK [PDDC1]",
    "melting temperature [°C]": 55.4
  },
  {
    "Sequence code": "MADQRQRSLSTSGESLYHVLGLDKNATSDDIKKSYRKLALKYHPDKNPDNPEAADKFKEINNAHAILTDATKRNIYDKYGSLGLYVAEQFGEENVNTYFVLSSWWAKALFVFCGLLTCCYCCCCLCCCFNCCCGKCKPKAPEGEETEFYVSPEDLEAQLQSDEREATDTPIVIQPASATETTQLTADSHPSYHTDGFN [DNAJC5]",
    "melting temperature [°C]": 53.5
  },
  {
    "Sequence code": "MSSGAASGTGRGRPRGGGPGPGDPPPSETHKLVVVGGGGVGKSALTIQFIQSYFVSDYDPTIEDSYTKICSVDGIPARLDILDTAGQEEFGAMREQYMRAGHGFLLVFAINDRQSFNEVGKLFTQILRVKDRDDFPVVLVGNKADLESQRQVPRSEASAFGASHHVAYFEASAKLRLNVDEAFEQLVRAVRKYQEQELPPSPPSAPRKKGGGCPCVLL [RRAS]",
    "melting temperature [°C]": 56
  }
]

Now turn to the next sequence.
QUERY: Any idea what its melting temperature is? The sequence is MTDGILGKAATMEIPIHGNGEARQLPEDDGLEQDLQQVMVSGPNLNETSIVSGGYGGSGDGLIPTGSGRHPSHSTTPSGPGDEVARGIAGEKFDIVKKWGINTYKCTKQLLSERFGRGSRTVDLELELQIELLRETKRKYESVLQLGRALTAHLYSLLQTQHALGDAFADLSQKSPELQEEFGYNAETQKLLCKNGETLLGAVNFFVSSINTLVTKTMEDTLMTVKQYEAARLEYDAYRTDLEELSLGPRDAGTRGRLESAQATFQAHRDKYEKLRGDVAIKLKFLEENKIKVMHKQLLLFHNAVSAYFAGNQKQLEQTLQQFNIKLRPPGAEKPSWLEEQ [ARFIP2]
RESULT: 50.9
